TESTED TARGET: core106 (HCV core protein domain) dimerization (Hepatitis C virus genotype 1a, UniProt P27958)
Construct: a core106 protein domain was tagged with either Glutathione-S-transferase (GST) tag or a Flag peptide tag
Sequence (P27958 2-106): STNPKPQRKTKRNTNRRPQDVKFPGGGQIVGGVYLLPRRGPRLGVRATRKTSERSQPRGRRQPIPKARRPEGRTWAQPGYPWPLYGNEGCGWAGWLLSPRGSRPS
TEST PROTOCOL: Core106 ALPHA screen (AlphaScreen) core dimerization assay
Assay type: binding
STUDY CONDITIONS: inhibition of core dimerization; Table 3; read-out: IC50
PARAMETER MEASURED: pIC50
Recall that pIC50 is obtained by taking minus log10 of the concentration measured in molar.

Guide cases for pIC50, answers given:
| COMPOUND | PARAMETER MEASURED | MEASURED |
| --- | --- | --- |
| COC(=O)C1=C(C(=O)OC)C2N(CCCCCn3cc(CNC(C)=O)nn3)c3ccccc3[C@@]23CCC(=O)N(Cc2ccccc2)C3=N1 (stereo partly drawn) | pIC50 | 6.47 |
| C=CCN1c2ccccc2[C@]23CCC(=O)N(Cc4cc(OC)c(OC)c(OC)c4)C2=NC(C(=O)OC)=C(C(=O)OC)C13 (mixture of isomers) | pIC50 | 5.70 |
| C=CCN1c2ccccc2[C@]23CCC(=O)N(Cc4ccccc4)C2=NC(C(=O)OC)=C(C(=O)OC)C13 (mixture of isomers) | pIC50 | 5.85 |
| COC(=O)C1=C(C(=O)OC)C2N(C)c3ccc(OC)cc3[C@@]23C[C@@H](C(=O)OC)N(C(=O)CC(C)C)C3=N1 (single isomer, unassigned) | pIC50 | 5.03 |
| CC#CCN1c2ccccc2[C@]23CCC(=O)N(CCOC)C2=NC(C(=O)OC)=C(C(=O)OC)C13 (mixture of isomers) | pIC50 | 5.70 |

Moving on to another compound below.
Qu. Return reported pIC50; argument: COC(=O)C1=C(C(=O)OC)C(NCCCN2c3ccccc3[C@]34CCC(=O)N(Cc5ccccc5)C3=NC(C(=O)OC)=C(C(=O)OC)C24)[C@@]2(c3ccccc3)CCC(=O)N(Cc3ccccc3)C2=N1 (stereo partly drawn)
Ans. 5.54

* * *

# EC50 annotations
Test system: HCV 2a J6/JFH-1
TEST PROTOCOL: HCV infectivity assay by real-time RT-PCR of HCV RNA (EC50 at T1 and T2)
Type: cell-based, hepatitis C virus
STUDY CONDITIONS: Hepatitis C virus, Huh7.5, read-out: HCV2a J6/JFH-1 T1-EC50

Guide cases for EC50, answers given:
| MOLECULE | EC50 |
| --- | --- |
| COC(=O)C1=C(C(=O)OC)C2N(C)c3ccc(OC)cc3[C@@]23C[C@@H](C(=O)OC)N(C(=O)CC(C)C)C3=N1 (single isomer, unassigned) | 14.8 µM |
| COc1ccc2c(O[C@@H]3C[C@H]4C(=O)N[C@]5(C(=O)O)C[C@H]5/C=C\CCCCC[C@H](NC(=O)OC5CCCC5)C(=O)N4C3)cc(-c3csc(NC(C)C)n3)nc2c1 [BILN2061, reference compound] | 0.072 µM |
| C=CCN1c2ccccc2[C@]23CCC(=O)N(Cc4ccccc4)C2=NC(C(=O)OC)=C(C(=O)OC)C13 (mixture of isomers) | 2.3 µM |
| C=CCN1c2ccccc2[C@]23CCC(=O)N(Cc4cc(OC)c(OC)c(OC)c4)C2=NC(C(=O)OC)=C(C(=O)OC)C13 (mixture of isomers) | 3.8 µM |

Moving on to another molecule below.
Qu. I'm curious: which EC50 was measured for CC#CCN1c2ccccc2[C@]23CCC(=O)N(CCOC)C2=NC(C(=O)OC)=C(C(=O)OC)C13 (mixture of isomers) tested on HCV 2a J6/JFH-1?
Ans. 4.9 µM

* * *

Tested on: HCV 2a J6/JFH-1
TEST PROTOCOL: HCV infectivity assay by real-time RT-PCR of HCV RNA (EC50 at T1 and T2)
Format: cell-based, hepatitis C virus
STUDY CONDITIONS: Hepatitis C virus, read-out: HCV 2A T1 - EC50
# EC50 annotations
Return type: number; implicit unit µM.

Guide cases for EC50, answers given:
| COMPOUND | MEASURED |
| --- | --- |
| CC#CCN1c2ccccc2[C@]23CCC(=O)N(CCOC)C2=NC(C(=O)OC)=C(C(=O)OC)C13 (mixture of isomers) [Compound 15] | 4.9 |
| COC(=O)C1=C(C(=O)OC)C2N(CCCCCn3cc(CNC(C)=O)nn3)c3ccccc3[C@@]23CCC(=O)N(Cc2ccccc2)C3=N1 (some centres unmarked) [Compound 28] | 26.2 |
| C=CCN1c2ccccc2[C@]23CCC(=O)N(Cc4cc(OC)c(OC)c(OC)c4)C2=NC(C(=O)OC)=C(C(=O)OC)C13 (mixture of isomers) [Compound 17] | 3.8 |
| COC(=O)C1=C(C(=O)OC)C2N(C)c3ccc(OC)cc3[C@@]23C[C@@H](C(=O)OC)N(C(=O)CC(C)C)C3=N1 (single isomer, unassigned) [Compound 1] | 8.8 |

Qu. Return reported EC50; argument: COC(=O)C1=C(C(=O)OC)C2N(CCCCCn3cc(-c4ccc(OC)cc4C)nn3)c3ccccc3[C@@]23CCC(=O)N(Cc2ccccc2)C3=N1 (some centres unmarked) [Compound 27]
Ans. 1.4

Qu. And then COC(=O)C1=C(C(=O)OC)C(NCCCN2c3ccccc3[C@]34CCC(=O)N(Cc5ccccc5)C3=NC(C(=O)OC)=C(C(=O)OC)C24)[C@@]2(c3ccccc3)CCC(=O)N(Cc3ccccc3)C2=N1 (some centres unmarked) [SL235] , what is it?
Ans. 0.088

Qu. And then COC(=O)[C@@H]1C[C@@]23C(=NC(c4ccc([N+](=O)[O-])cc4)=C(C(F)(F)F)C2N(C)c2ccccc23)N1C(C)=O (some centres unmarked) [Compound 22a] , what is it?
Ans. 1.3

Qu. And then C=CCN1c2ccccc2[C@]23CCC(=O)N(Cc4ccccc4)C2=NC(C(=O)OC)=C(C(=O)OC)C13 (mixture of isomers) [Compound 16] , what is it?
Ans. 2.3

* * *

Tested on: HCV 2a J6/JFH-1
TEST PROTOCOL: HCV infectivity assay by real-time RT-PCR of HCV RNA (EC50 at T1 and T2)
Assay type: cell-based, hepatitis C virus
STUDY CONDITIONS: Hepatitis C virus, Huh7.5, read-out: HCV2a J6/JFH-1 T2-EC50
Rule: EC50 below 3000 nM gives true (1). Equal to or above 3000 nM gives false (0).

| COMPOUND | TESTED TARGET | ASSIGNED CLASS |
| --- | --- | --- |
| COc1ccc2c(O[C@@H]3C[C@H]4C(=O)N[C@]5(C(=O)O)C[C@H]5/C=C\CCCCC[C@H](NC(=O)OC5CCCC5)C(=O)N4C3)cc(-c3csc(NC(C)C)n3)nc2c1 [BILN2061, reference compound] | HCV 2a J6/JFH-1 | true (1) |
| COC(=O)C1=C(C(=O)OC)C2N(C)c3ccc(OC)cc3[C@@]23C[C@@H](C(=O)OC)N(C(=O)CC(C)C)C3=N1 (single isomer, unassigned) | HCV 2a J6/JFH-1 | false (0) |
| CC#CCN1c2ccccc2[C@]23CCC(=O)N(CCOC)C2=NC(C(=O)OC)=C(C(=O)OC)C13 (mixture of isomers) | HCV 2a J6/JFH-1 | true (1) |

Could you now look at the following compound, please?
Qu. Is 3000 nM strictly greater than the compound's reported EC50? compound: C=CCN1c2ccccc2[C@]23CCC(=O)N(Cc4ccccc4)C2=NC(C(=O)OC)=C(C(=O)OC)C13 (mixture of isomers)
Ans. false (0)
